# TEST CONDITIONS: in ethanol, 308.15 K
MEASURED QUANTITY: solubility (mole fraction)
// print number alone

**Query** For Cc1c(C(=O)c2c[nH]n(C)c2=O)ccc(S(C)(=O)=O)c1C1=NOCC1 , what is its reported solubility (mole fraction)?
**Result** 0.000239

====

# TEST CONDITIONS: in n-propyl acetate, 313.15 K
MEASURED QUANTITY: solubility (mole fraction)
// print number alone

**Query** For Cc1c(C(=O)c2c[nH]n(C)c2=O)ccc(S(C)(=O)=O)c1C1=NOCC1 , what is its reported solubility (mole fraction)?
**Result** 0.00121

====

# TEST CONDITIONS: in n-butanol, 313.15 K
MEASURED QUANTITY: solubility (mole fraction)

**Query** For Cc1c(C(=O)c2c[nH]n(C)c2=O)ccc(S(C)(=O)=O)c1C1=NOCC1 , what is its reported solubility (mole fraction)?
**Result** 0.000301

====

# TEST CONDITIONS: in n-butyl acetate, 293.15 K
MEASURED QUANTITY: solubility (mole fraction)
// print number alone

**Query** For Cc1c(C(=O)c2c[nH]n(C)c2=O)ccc(S(C)(=O)=O)c1C1=NOCC1 , what is its reported solubility (mole fraction)?
**Result** 0.000495

====

# TEST CONDITIONS: in isobutanol, 293.15 K
MEASURED QUANTITY: solubility (mole fraction)
// print number alone

**Query** For Cc1c(C(=O)c2c[nH]n(C)c2=O)ccc(S(C)(=O)=O)c1C1=NOCC1 , what is its reported solubility (mole fraction)?
**Result** 7.53e-05

====

# TEST CONDITIONS: in toluene, 283.15 K
MEASURED QUANTITY: solubility (mole fraction)

**Query** For Cc1c(C(=O)c2c[nH]n(C)c2=O)ccc(S(C)(=O)=O)c1C1=NOCC1 , what is its reported solubility (mole fraction)?
**Result** 0.000256

====

# TEST CONDITIONS: in n-butanol, 283.15 K
MEASURED QUANTITY: solubility (mole fraction)

**Query** For Cc1c(C(=O)c2c[nH]n(C)c2=O)ccc(S(C)(=O)=O)c1C1=NOCC1 , what is its reported solubility (mole fraction)?
**Result** 6.22e-05

====

# TEST CONDITIONS: in ethyl acetate, 298.15 K
MEASURED QUANTITY: solubility (mole fraction)
// print number alone

**Query** For Cc1c(C(=O)c2c[nH]n(C)c2=O)ccc(S(C)(=O)=O)c1C1=NOCC1 , what is its reported solubility (mole fraction)?
**Result** 0.000894

====

# TEST CONDITIONS: in THF, 318.15 K
MEASURED QUANTITY: solubility (mole fraction)
// print number alone

**Query** For Cc1c(C(=O)c2c[nH]n(C)c2=O)ccc(S(C)(=O)=O)c1C1=NOCC1 , what is its reported solubility (mole fraction)?
**Result** 0.00652

====

# TEST CONDITIONS: in n-propyl acetate, 288.15 K
MEASURED QUANTITY: solubility (mole fraction)

**Query** For Cc1c(C(=O)c2c[nH]n(C)c2=O)ccc(S(C)(=O)=O)c1C1=NOCC1 , what is its reported solubility (mole fraction)?
**Result** 0.000496

====

# TEST CONDITIONS: in n-butyl acetate, 298.15 K
MEASURED QUANTITY: solubility (mole fraction)
// print number alone

**Query** For Cc1c(C(=O)c2c[nH]n(C)c2=O)ccc(S(C)(=O)=O)c1C1=NOCC1 , what is its reported solubility (mole fraction)?
**Result** 0.000584

====

# TEST CONDITIONS: in isobutyl acetate, 318.15 K
MEASURED QUANTITY: solubility (mole fraction)
// print number alone

**Query** For Cc1c(C(=O)c2c[nH]n(C)c2=O)ccc(S(C)(=O)=O)c1C1=NOCC1 , what is its reported solubility (mole fraction)?
**Result** 0.00107

====

# TEST CONDITIONS: in isopropyl acetate, 288.15 K
MEASURED QUANTITY: solubility (mole fraction)
// print number alone

**Query** For Cc1c(C(=O)c2c[nH]n(C)c2=O)ccc(S(C)(=O)=O)c1C1=NOCC1 , what is its reported solubility (mole fraction)?
**Result** 0.000353

====

# TEST CONDITIONS: in n-butanol, 288.15 K
MEASURED QUANTITY: solubility (mole fraction)
// print number alone

**Query** For Cc1c(C(=O)c2c[nH]n(C)c2=O)ccc(S(C)(=O)=O)c1C1=NOCC1 , what is its reported solubility (mole fraction)?
**Result** 8.09e-05

====

# TEST CONDITIONS: in isopropanol, 288.15 K
MEASURED QUANTITY: solubility (mole fraction)

**Query** For Cc1c(C(=O)c2c[nH]n(C)c2=O)ccc(S(C)(=O)=O)c1C1=NOCC1 , what is its reported solubility (mole fraction)?
**Result** 5.11e-05

====

# TEST CONDITIONS: in isopropyl acetate, 293.15 K
MEASURED QUANTITY: solubility (mole fraction)
// print number alone

**Query** For Cc1c(C(=O)c2c[nH]n(C)c2=O)ccc(S(C)(=O)=O)c1C1=NOCC1 , what is its reported solubility (mole fraction)?
**Result** 0.00042

====

# TEST CONDITIONS: in acetone, 303.15 K
MEASURED QUANTITY: solubility (mole fraction)
// print number alone

**Query** For Cc1c(C(=O)c2c[nH]n(C)c2=O)ccc(S(C)(=O)=O)c1C1=NOCC1 , what is its reported solubility (mole fraction)?
**Result** 0.00204

====

# TEST CONDITIONS: in toluene, 323.15 K
MEASURED QUANTITY: solubility (mole fraction)
// print number alone

**Query** For Cc1c(C(=O)c2c[nH]n(C)c2=O)ccc(S(C)(=O)=O)c1C1=NOCC1 , what is its reported solubility (mole fraction)?
**Result** 0.000895
